Assay Text: Quantitative High-Throughput drug screen in 47 multiple myeloma cell lines against the NCATS MIPE library collection: JIM3_ECACC cell viability assay (AID 1918963; note: nearly all actives have a fitted effect of over 35% in size)
Details: JIM3 myeloma viability, CellTiter-Glo ATP, 48 h; series mostly up to 45.8 µM
Records with an inconclusive call do not appear. Calls of active or inactive are those of the source. Calls come from the whole dose curve; as a rule, active = well fitted cell-killing curve with a large enough effect; inconclusive = small, poorly fitted or top-dose-only effect; inactive = no such curve, though single readings can be large or run the other way.
Select the matching outcome among 1 (yes) = active, 0 (no) = inactive

Please review the following examples before continuing.
Compound	Label
COc1cc(C(C)C)c(Oc2cnc(NC(CO)CO)nc2N)cc1I	0 (no)
C=CCNC1=C2C[C@@H](C)C[C@H](OC)[C@@H](O)[C@@H](C)C=C(C)[C@H](OC(N)=O)[C@@H](OC)C=CC=C(C)C(=O)NC(=CC1=O)C2=O	1 (yes)
O=C1NC(=O)C(=Cc2ccc3nccc(-c4ccncc4)c3c2)S1	1 (yes)
CC(C=CC1=C(C)CCCC1(C)C)=CC=CC(C)=CC(=O)Nc1ccc(O)cc1	1 (yes)
Cn1cc(CNCC2CCN(c3ncc(C(=O)NO)cn3)CC2)c2ccccc21	1 (yes)
CC(C)C[C@H](NC(=O)[C@@H](NC(=O)c1cccc(-c2ccccc2)n1)[C@@H](C)O)B(O)O	1 (yes)

Ask: Which outcome was entered for the compound N#CC(=C(O)c1ccc(Cl)cc1Cl)c1nc2cc(Cl)ccc2c(=O)[nH]1 in this test?
Reply: 0 (no)

Ask: Okay, and CC(C)(C)[N+]([O-])=Cc1ccc(S(=O)(=O)O)cc1S(=O)(=O)O ?
Reply: 0 (no)
